Entries and their measured Safety index (TC25 nM/EC50 nM) follow.
Tested on: primary cultured rat hepatocytes
Test: Cytotoxicity assay in primary cultured rat hepatocytes (neutral red)
Settings: TC25 in hepatocyte cytotoxicity assay / EC50 in triglyceride accumulation assay
measured_metric: Safety index (TC25 nM/EC50 nM)

INSERT INTO assay_data (compound, endpoint_result) VALUES
  ('CCc1ccc(Oc2cc(N(C)CCOc3ccc(C=C4SC(=O)NC4=O)cc3)ncn2)cc1 [Ex. 9]', 3010),
  ('CC(C)Oc1ccc(Oc2cc(N(C)CCOc3ccc(CC4SC(=O)NC4=O)cc3)ncn2)cc1 (stereo not shown) [Ex. 27]', 3594),
  ('CCc1ccc(Oc2cc(N(C)CCOc3ccc(CC4SC(=O)NC4=O)cc3)ncn2)cc1 (stereo not shown) [Ex. 28]', 40476),
  ('CN(CCOc1ccc(CC2SC(=O)NC2=O)cc1)c1ccccn1 (stereo not shown) [Rosiglitazone, reference compound]', 1489);
